System: DLD-1
Assay: NCI tumour cell line growth inhibition, 48 h
Calls of active or inactive are those of the source. Rule as the data show it: active = GI50 up to about 1.1 µM and inactive = higher.
Field 'call' accepts yes (1) (active), no (0) (inactive)

Hi, do you know how C=CCC(O[Si](C)(C)C(C)(C)C)c1cc(O[Si](C)(C)C(C)(C)C)ccc1OC (centres undefined) came out in this test? no (0)

Outcome? O=C(OCc1ccccc1)C(Cc1ccccc1)N(Cc1ccccc1)Cc1ccccc1 (centres undefined) no (0)

Hi, do you know how CC(C)(CN1CCCCC1)C(=O)CC(SCCS(=O)(=O)O)c1ccc(Br)cc1 (centres undefined) came out in this test? no (0)

More entries:
Tell me the assay call for COc1cc(CCCOC2OC(COC3OCC(O)C(O)C3O)C(O)C(O)C2O)cc2cc(-c3ccc4c(c3)OCO4)oc12 (centres undefined) please. no (0)

Can you look up the reported call for CN1CCC23c4c5ccc(O)c4OC2C(=NN=C2CCC4(O)C6Cc7ccc(O)c8c7C4(CCN6C)C2O8)CCC3(O)C1C5 (centres undefined) for me? no (0)

Could you please tell me the result logged for "Nc1nc(N)c(-c2ccccc2)c(C(=O)Nc2ccccc2)n1" in this assay? no (0)
